Here, each record is paired with measured pIC50 data.
# studyTarget: Ephrin type-B receptor 4 (Homo sapiens, UniProt P54760)
# Sequence (P54760 whole entry): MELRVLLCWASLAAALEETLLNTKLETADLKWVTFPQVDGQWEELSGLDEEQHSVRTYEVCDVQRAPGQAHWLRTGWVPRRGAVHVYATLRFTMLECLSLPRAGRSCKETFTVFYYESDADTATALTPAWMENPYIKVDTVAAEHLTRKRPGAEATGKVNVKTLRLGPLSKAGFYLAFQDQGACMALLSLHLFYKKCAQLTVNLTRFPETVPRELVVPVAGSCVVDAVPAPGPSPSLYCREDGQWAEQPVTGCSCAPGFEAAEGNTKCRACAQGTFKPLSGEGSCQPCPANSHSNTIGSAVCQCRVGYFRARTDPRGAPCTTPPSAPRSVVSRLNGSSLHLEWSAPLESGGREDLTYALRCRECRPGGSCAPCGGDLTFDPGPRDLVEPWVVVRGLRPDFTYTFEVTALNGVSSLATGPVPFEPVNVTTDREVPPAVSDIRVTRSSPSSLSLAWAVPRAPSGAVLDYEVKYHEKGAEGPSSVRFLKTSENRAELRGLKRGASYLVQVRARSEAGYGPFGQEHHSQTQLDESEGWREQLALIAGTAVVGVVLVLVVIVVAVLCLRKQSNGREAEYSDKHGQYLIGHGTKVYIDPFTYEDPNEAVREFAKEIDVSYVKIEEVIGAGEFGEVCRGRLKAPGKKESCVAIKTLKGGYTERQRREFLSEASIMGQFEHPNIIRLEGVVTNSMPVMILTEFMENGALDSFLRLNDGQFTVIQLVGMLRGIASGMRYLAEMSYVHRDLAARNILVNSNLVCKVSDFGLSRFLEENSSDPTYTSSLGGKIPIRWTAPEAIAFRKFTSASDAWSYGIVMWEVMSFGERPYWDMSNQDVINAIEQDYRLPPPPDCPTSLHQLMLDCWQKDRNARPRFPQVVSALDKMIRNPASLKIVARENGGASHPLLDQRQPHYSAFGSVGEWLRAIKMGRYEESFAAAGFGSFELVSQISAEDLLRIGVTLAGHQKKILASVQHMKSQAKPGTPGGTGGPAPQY
# procedureText: Inhibition of recombinant human N-terminal His6-tagged EphB4 kinase domain (E605 to E890 residues) expressed in baculovirus using poly-AEKY as substrate after 150 mins in presence of gamma33P-ATP by liquid scintillation spectrometry
pIC50: −log10 of the molar value.

compound | pIC50
COc1cc2c(Nc3ccc(Br)c(Cl)c3F)ncnc2cc1OC[C@@H]1CN2CCC[C@H]2CO1 | > 7.30
COc1cc2c(Nc3ccc(Cl)c(Cl)c3)ncnc2cc1OCCC1CN(C)C(C)(C)CO1 (stereo not drawn) | 6.00 to 7.30
COc1cc2c(Nc3ccc(Br)c(Cl)c3)ncnc2cc1O[C@H]1CO[C@H]2[C@@H]1OC[C@@H]2N1CCCC1 | 6.00 to 7.30
COc1cc2c(Nc3ccc(Cl)c(Cl)c3)ncnc2cc1OCC1CN(C(=O)c2ccc(Cl)nc2)CCO1 (stereo not drawn) | > 7.30
COc1cc2c(Nc3ccc(Cl)c(Cl)c3)ncnc2cc1OCC1CN(S(=O)(=O)CCCCl)CCO1 (stereo not drawn) | > 7.30
COc1cc2c(Nc3ccc(Cl)c(Cl)c3F)ncnc2cc1OC[C@@H]1CN2CCOC[C@H]2CO1 | > 7.30
COc1cc2c(Nc3ccc(Br)c(Cl)c3)ncnc2cc1O[C@H]1CO[C@H]2[C@@H]1OC[C@@H]2N1CCOCC1 | 6.00 to 7.30

Could you now consider this next compound?
Req: Need pIC50 of COc1cc2c(Nc3ccc(Br)c(F)c3F)ncnc2cc1OCC1CN(C)CCO1 (stereo not drawn) , thanks.
Resp: 6.00 to 7.30

---

Here, each record is paired with measured IC50 data.
# studyTarget: Ephrin type-B receptor 4 (Homo sapiens, UniProt P54760)
# procedureText: Inhibition of recombinant human N-terminal His6-tagged EphB4 kinase domain (E605 to E890 residues) expressed in baculovirus using poly-AEKY as substrate after 150 mins in presence of gamma33P-ATP by liquid scintillation spectrometry

compound | IC50
COc1cc2c(Nc3cccc(Br)c3C)ncnc2cc1OCC1CN(C)CCO1 (centres undefined) | 50 to 1000 nM
COc1cc2c(Nc3ccc(Cl)c(Cl)c3)ncnc2cc1OCC1CN(CCCCF)CCO1 (centres undefined) | < 50 nM
COc1cc2c(Nc3cc(Cl)c(Cl)cc3F)ncnc2cc1OC[C@@H]1CN2CCOC[C@H]2CO1 | < 50 nM
COc1cc2c(Nc3ccc(Cl)c(Cl)c3)ncnc2cc1OCc1csc(N2CCN(C)CC2)n1 | 50 to 1000 nM
COc1cc2c(Nc3ccc(Cl)c(Cl)c3)ncnc2cc1OCC1CN(S(=O)(=O)c2ccccc2)CCO1 (centres undefined) | 50 to 1000 nM

Req: Need IC50 of COCCNC(=NC#N)N1CCOC(COc2cc3ncnc(Nc4ccc(Cl)c(Cl)c4)c3cc2OC)C1 (centres undefined) , thanks.
Resp: < 50 nM

Req: Need IC50 of COc1cc2c(Nc3cc(Cl)ccc3F)ncnc2cc1OCC1CN(C)CCO1 (centres undefined) , thanks.
Resp: 50 to 1000 nM

Req: Need IC50 of COc1cc2c(Nc3ccc(N4CCN(C)CC4)c(Cl)c3Cl)ncnc2cc1O[C@H]1CO[C@H]2[C@@H]1OC[C@@H]2F , thanks.
Resp: 1000 to 20000 nM

Req: Need IC50 of COc1cc2c(Nc3ccc(Cl)c(Cl)c3)ncnc2cc1OCC1CN(C2CCN(C)CC2)CCO1 (centres undefined) , thanks.
Resp: < 50 nM

---

# studyTarget: Receptor tyrosine-protein kinase erbB-2 (Homo sapiens, UniProt P04626)
# Sequence (P04626 whole entry, the tested form may be a part): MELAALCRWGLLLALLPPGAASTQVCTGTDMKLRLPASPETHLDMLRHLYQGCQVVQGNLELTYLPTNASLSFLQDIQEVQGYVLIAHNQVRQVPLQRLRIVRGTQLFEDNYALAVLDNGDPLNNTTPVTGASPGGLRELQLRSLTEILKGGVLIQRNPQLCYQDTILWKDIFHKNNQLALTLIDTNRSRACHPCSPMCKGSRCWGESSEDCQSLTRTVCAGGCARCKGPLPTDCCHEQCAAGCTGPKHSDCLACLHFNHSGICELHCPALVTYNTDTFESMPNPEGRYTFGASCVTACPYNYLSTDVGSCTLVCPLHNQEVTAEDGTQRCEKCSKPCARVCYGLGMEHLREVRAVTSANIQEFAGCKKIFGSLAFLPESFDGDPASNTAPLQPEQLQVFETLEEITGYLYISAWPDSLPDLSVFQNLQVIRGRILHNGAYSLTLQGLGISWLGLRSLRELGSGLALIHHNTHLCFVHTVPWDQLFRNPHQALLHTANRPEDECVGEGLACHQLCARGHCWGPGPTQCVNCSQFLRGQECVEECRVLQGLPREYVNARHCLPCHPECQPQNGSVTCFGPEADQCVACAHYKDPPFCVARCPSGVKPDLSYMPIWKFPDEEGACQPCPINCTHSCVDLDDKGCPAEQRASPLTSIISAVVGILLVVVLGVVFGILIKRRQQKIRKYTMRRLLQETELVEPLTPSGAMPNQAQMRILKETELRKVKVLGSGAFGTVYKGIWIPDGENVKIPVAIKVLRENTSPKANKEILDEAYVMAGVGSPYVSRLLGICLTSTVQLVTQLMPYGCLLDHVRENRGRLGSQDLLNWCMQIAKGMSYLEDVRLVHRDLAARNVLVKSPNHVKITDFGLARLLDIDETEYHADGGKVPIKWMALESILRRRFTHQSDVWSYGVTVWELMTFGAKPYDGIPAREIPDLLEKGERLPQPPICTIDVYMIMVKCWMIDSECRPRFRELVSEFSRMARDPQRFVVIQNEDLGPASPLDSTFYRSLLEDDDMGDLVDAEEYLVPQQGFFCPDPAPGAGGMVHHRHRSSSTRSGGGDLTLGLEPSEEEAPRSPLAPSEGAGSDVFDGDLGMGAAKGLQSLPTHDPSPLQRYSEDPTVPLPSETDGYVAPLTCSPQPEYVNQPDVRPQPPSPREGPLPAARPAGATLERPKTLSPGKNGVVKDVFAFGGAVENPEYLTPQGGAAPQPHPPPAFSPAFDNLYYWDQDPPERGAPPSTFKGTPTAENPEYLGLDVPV
# procedureText: Inhibition of recombinant human N-terminal GST His6-tagged thrombin cleavage site-fused ErbB2 kinase domain (Q679 to V1255 residues) expressed in baculovirus infected insect Sf9 cells using biotinylated poly-EY as substrate after 60 mins by alphascreen assay
pIC50: −log10 of the molar value.
assayReadout: pIC50

molecule | pIC50
COc1cc2c(Nc3ccc(Cl)c(Cl)c3N3CCN(C)CC3)ncnc2cc1O[C@H]1CO[C@H]2[C@@H]1OC[C@@H]2F | 4.70 to 6.00
COc1cc2c(Nc3ccc(Br)c(Cl)c3F)ncnc2cc1OC[C@@H]1CN2CCOC[C@H]2CO1 | > 7.30
COc1cc2c(Nc3ccc(Cl)c(Cl)c3F)ncnc2cc1OC[C@@H]1CN2CCC[C@H]2C(=O)N1C | 4.70 to 6.00

Could you now consider this next molecule?
Req: Need pIC50 of COc1cc2c(Nc3cccc(Cl)c3F)ncnc2cc1OCC1CN(/C(N)=N/C#N)CCCO1 (centres undefined) , thanks.
Resp: > 7.30

---

# studyTarget: Ephrin type-B receptor 4 (Homo sapiens)
# procedureText: Inhibition of recombinant human N-terminal His6-tagged EphB4 kinase domain (E605 to E890 residues) expressed in baculovirus using poly-AEKY as substrate after 150 mins in presence of gamma33P-ATP by liquid scintillation spectrometry
pIC50: −log10 of the molar value.
assayReadout: pIC50

Req: Need pIC50 of CCCN1CCOC(COc2cc3ncnc(Nc4ccc(Cl)c(Cl)c4)c3cc2OC)C1 (stereo not drawn) , thanks.
Resp: > 7.30

Req: Need pIC50 of COc1cc2c(Nc3ccc(Cl)c(Cl)c3)ncnc2cc1OCC1CN(C(=O)c2cc(F)ccc2F)CCO1 (stereo not drawn) , thanks.
Resp: 6.00 to 7.30

Req: Need pIC50 of COc1cc2c(Nc3ccc(Cl)c(Cl)c3F)ncnc2cc1OC[C@@H]1CN2CCC[C@H]2C(=O)N1C , thanks.
Resp: > 7.30

---

# studyTarget: UniProt:P54760
# Sequence (P54760 whole entry): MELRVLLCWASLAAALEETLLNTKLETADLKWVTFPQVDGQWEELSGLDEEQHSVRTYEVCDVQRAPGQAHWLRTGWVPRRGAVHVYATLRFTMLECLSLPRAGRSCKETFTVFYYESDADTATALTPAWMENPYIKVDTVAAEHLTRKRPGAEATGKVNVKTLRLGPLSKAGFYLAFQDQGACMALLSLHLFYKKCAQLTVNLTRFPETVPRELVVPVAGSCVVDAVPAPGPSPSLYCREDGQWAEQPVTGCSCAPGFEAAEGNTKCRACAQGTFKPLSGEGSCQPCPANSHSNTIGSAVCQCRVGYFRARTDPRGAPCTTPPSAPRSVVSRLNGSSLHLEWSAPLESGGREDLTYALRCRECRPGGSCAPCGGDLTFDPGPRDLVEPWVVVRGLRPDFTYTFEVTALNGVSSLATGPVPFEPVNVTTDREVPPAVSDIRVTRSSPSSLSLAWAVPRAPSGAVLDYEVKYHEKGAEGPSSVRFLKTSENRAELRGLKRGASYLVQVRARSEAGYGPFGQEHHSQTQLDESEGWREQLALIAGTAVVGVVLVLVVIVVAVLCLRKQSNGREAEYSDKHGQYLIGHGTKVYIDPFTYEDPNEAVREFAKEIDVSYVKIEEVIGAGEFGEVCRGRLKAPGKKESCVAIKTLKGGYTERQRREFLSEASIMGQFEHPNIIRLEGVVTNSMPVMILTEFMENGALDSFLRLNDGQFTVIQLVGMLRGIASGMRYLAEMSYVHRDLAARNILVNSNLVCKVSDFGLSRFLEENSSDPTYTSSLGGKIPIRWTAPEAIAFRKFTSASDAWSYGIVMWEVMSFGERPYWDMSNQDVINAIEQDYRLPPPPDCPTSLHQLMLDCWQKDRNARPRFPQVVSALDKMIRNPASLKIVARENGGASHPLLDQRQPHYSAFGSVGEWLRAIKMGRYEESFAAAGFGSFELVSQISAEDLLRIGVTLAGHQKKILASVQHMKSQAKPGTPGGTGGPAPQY
# procedureText: Inhibition of recombinant human N-terminal His6-tagged EphB4 kinase domain (E605 to E890 residues) expressed in baculovirus using poly-AEKY as substrate after 150 mins in presence of gamma33P-ATP by liquid scintillation spectrometry
pIC50: −log10 of the molar value.
assayReadout: pIC50

Worked cases, answers included:
compound | pIC50
CCC(=O)CN1CCOC(COc2cc3ncnc(Nc4ccc(Cl)c(Cl)c4)c3cc2OC)C1 (stereo not given) | 6.00 to 7.30
COc1cc2c(Nc3ccc(Cl)c(Cl)c3C)ncnc2cc1OCC1CN(C)CCO1 (stereo not given) | > 7.30
COc1cc2c(Nc3ccc(Br)c(Cl)c3)ncnc2cc1O[C@@H]1CO[C@H]2[C@@H]1OC[C@@H]2O | 6.00 to 7.30
COc1cc2c(Nc3ccc(Cl)c(Cl)c3)ncnc2cc1OCC1CN(C)C(C)(C)CO1 (stereo not given) | > 7.30

Req: Notebook: pull reported pIC50 for UniProt:P54760, entry COc1cc2c(Nc3ccc(Br)cc3F)ncnc2cc1OCC1CN(C)CCO1 (stereo not given)
Resp: 6.00 to 7.30
